Target: GST-Dm-Relish (Drosophila melanogaster, UniProt Q94527 99-473)
Sequence: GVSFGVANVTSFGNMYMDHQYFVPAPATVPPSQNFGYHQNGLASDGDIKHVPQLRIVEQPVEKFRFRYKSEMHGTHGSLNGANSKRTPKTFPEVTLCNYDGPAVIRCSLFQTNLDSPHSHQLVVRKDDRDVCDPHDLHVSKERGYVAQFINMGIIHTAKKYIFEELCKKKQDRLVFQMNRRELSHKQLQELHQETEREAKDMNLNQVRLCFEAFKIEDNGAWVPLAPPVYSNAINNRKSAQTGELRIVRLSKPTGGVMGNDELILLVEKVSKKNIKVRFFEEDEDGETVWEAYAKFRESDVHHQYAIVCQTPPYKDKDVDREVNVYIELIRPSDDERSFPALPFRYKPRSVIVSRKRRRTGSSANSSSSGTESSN
Assay: protein-binding microarray (PBM); PBM: ~300 nM protein, 6 mM HEPES pH 7.8, 80 mM KCl, 0.5 mM EDTA, 0.5 mM EGTA, 6% glycerol, 35 ng/ul poly-dIdC, 1% milk, 1 h, room temperature; Ap Aiptasia and Nv Nematostella (sea anemones) / Co Capsaspora / Aq Amphimedon (sponge) / Dm Drosophila / Hu human; RHD is the Rel homology domain; high values mean tight binding
Details: dsDNA, one strand shown
REPORTED PROPERTY: binding signal (z-score)
Provide only the numeric value, understood in z-score.

-- ask Which binding signal is reported with GST-Dm-Relish (Drosophila melanogaster, UniProt Q94527 99-473) for this entry: CCGATTAACATCAGTTTTCCCCATGATGTTAATCGGGTCTTGATTCGCTTGACGCTGCTG ?
-- reply 3.42

-- ask Write down the reported binding signal of CCGATTAACATCAGGGAAATCAATGATGTTAATCGGGTCTTGATTCGCTTGACGCTGCTG , test system: GST-Dm-Relish (Drosophila melanogaster, UniProt Q94527 99-473).
-- reply 1.09

-- ask Give the reported binding signal for CCGATTAACATCACGGGCATCCCTGATGTTAATCGGGTCTTGATTCGCTTGACGCTGCTG (system: GST-Dm-Relish (Drosophila melanogaster, UniProt Q94527 99-473)).
-- reply 5.06

-- ask Find the measured binding signal: item CCGATTAACATCAGGGGGCACCCTGATGTTAATCGGGTCTTGATTCGCTTGACGCTGCTG , target or system GST-Dm-Relish (Drosophila melanogaster, UniProt Q94527 99-473).
-- reply 3.84

-- ask API: value(readout= binding signal, system= GST-Dm-Relish (Drosophila melanogaster, UniProt Q94527 99-473), query= CCGATTAACATCAGGGCAGTACCTGATGTTAATCGGGTCTTGATTCGCTTGACGCTGCTG )
-- reply 1.84
